Experiment: human metabolic stability half-life assay
Conditions: microsomes, pH 7.4, HLM (t1/2, min), human liver microsomes, CYP-mediated (NADPH-dependent), 0.5 μM compound, 45 min time course, some values are an average of N experiments
outcome_measure: half-life at 0.5 µM (h)
Supply the numeric figure in h, leaving out any unit text.

Consider the reported half-life at 0.5 µM for these compounds:
>  <sample_smiles>
COc1cccc2c1NC(=O)[C@@H](NC(=O)[C@H](CCC(F)(F)F)[C@H](CC1CC1)C(N)=O)N=C2c1ccc(Cl)cc1

>  <recorded_number>
1.03

$$$$
>  <sample_smiles>
COc1ccc2c(c1F)NC(=O)[C@@H](NC(=O)[C@H](CCC(F)(F)F)[C@H](CC1CC1)C(N)=O)N=C2c1ccccc1

>  <recorded_number>
1.65

$$$$
>  <sample_smiles>
Cc1cccc2c1NC(=O)[C@@H](NC(=O)[C@H](CCC(F)(F)F)[C@H](CC1CC1)C(N)=O)N=C2c1cccc(C(F)(F)F)c1

>  <recorded_number>
1.5

$$$$
>  <sample_smiles>
COc1cccc2c1NC(=O)[C@@H](NC(=O)[C@H](CCC(F)(F)F)[C@H](CC1CC1)C(N)=O)N=C2c1cccc(F)c1

>  <recorded_number>
1.38

$$$$
>  <sample_smiles>
Cc1cccc2c1NC(=O)[C@@H](NC(=O)[C@H](CCC(F)(F)F)[C@H](CC1CC1)C(N)=O)N=C2c1cccc(F)c1

>  <recorded_number>
1.2

$$$$

# ---- query compound ----
Challenge: Supply measured half-life at 0.5 µM of `CCC[C@H](C(N)=O)[C@@H](CCC(F)(F)F)C(=O)N[C@H]1N=C(c2ccccc2)c2cccc(C)c2NC1=O` in your reply.
Response given: 0.667

* * *

Experiment: human metabolic stability half-life assay
Details: microsomes, pH 7.4, HLM (t1/2, min), human liver microsomes, CYP-mediated (NADPH-dependent), 0.5 μM compound, 45 min time course, some values are an average of N experiments
outcome_measure: half-life at 0.5 µM (h)
Report the value in h with no unit label.

>  <sample_smiles>
Cc1ccc(C2=N[C@H](NC(=O)[C@H](CCC(F)(F)F)[C@H](CC3CC3)C(N)=O)C(=O)Nc3c(F)cccc32)cc1

>  <recorded_number>
1.25

$$$$
>  <sample_smiles>
NC(=O)[C@@H](CC1CC1)[C@@H](CCC(F)(F)F)C(=O)N[C@H]1N=C(c2ccccc2)c2cccc(Cl)c2NC1=O

>  <recorded_number>
1.45

$$$$
>  <sample_smiles>
CCC[C@H](C(N)=O)[C@@H](CCC(F)(F)F)C(=O)N[C@H]1N=C(c2ccccc2)c2ccc(Br)c(OC)c2NC1=O

>  <recorded_number>
0.633

$$$$
>  <sample_smiles>
COc1cccc2c1NC(=O)[C@@H](NC(=O)[C@H](CCC(F)(F)F)[C@H](CC1CC1)C(N)=O)N=C2c1ccccc1

>  <recorded_number>
1.17

$$$$

Lab note: next compound to report on.
Challenge: Tell me half-life at 0.5 µM reported for `NC(=O)[C@@H](CC1CC1)[C@@H](CCC(F)(F)F)C(=O)N[C@H]1N=C(c2cccc(Cl)c2)c2cccc(F)c2NC1=O`
Response given: 1.27

* * *

Assay: human metabolic stability half-life assay
Details: microsomes, pH 7.4, HLM (t1/2, min), human liver microsomes, CYP-mediated (NADPH-dependent), 0.5 μM compound, 45 min time course, some values are an average of N experiments
outcome_measure: half-life at 0.5 µM (min)
Value expressed in min; do not type the unit.

// worked examples, half-life at 0.5 µM included
>  <compound>
CCC[C@H](C(N)=O)[C@@H](CCC(F)(F)F)C(=O)N[C@H]1N=C(c2ccccc2)c2cccc(C#N)c2NC1=O [Example 32]

>  <recorded_number>
55

$$$$
>  <compound>
NC(=O)[C@@H](CC1CC1)[C@@H](CCC(F)(F)F)C(=O)N[C@H]1N=C(c2ccc(Cl)cc2)c2cccc(Cl)c2NC1=O [Example 27]

>  <recorded_number>
81

$$$$
>  <compound>
CCC[C@H](C(N)=O)[C@@H](CCC(F)(F)F)C(=O)N[C@H]1N=C(c2ccccc2)c2cccc(C(F)(F)F)c2NC1=O [Example 35]

>  <recorded_number>
36

$$$$
>  <compound>
CCC[C@H](C(N)=O)[C@@H](CCC(F)(F)F)C(=O)N[C@H]1N=C(c2ccc(Cl)cc2)c2cccc(Cl)c2NC1=O [Example 28]

>  <recorded_number>
39

$$$$

Continue with the next compound.
Challenge: For the compound Cc1cccc(C2=N[C@H](NC(=O)[C@H](CCC(F)(F)F)[C@H](CC3CC3)C(N)=O)C(=O)Nc3c(O)cccc32)c1 [Example 8] , give its measured half-life at 0.5 µM value.
Response given: 37

* * *

Assay: human metabolic stability half-life assay
Details: microsomes, pH 7.4, HLM (t1/2, min), human liver microsomes, CYP-mediated (NADPH-dependent), 0.5 μM compound, 45 min time course, some values are an average of N experiments
outcome_measure: half-life at 0.5 µM (h)
Respond numerically; units are h and should not be typed.

>  <sample_smiles>
Cc1cc(F)c2c(c1)C(c1ccccc1)=N[C@H](NC(=O)[C@H](CCC(F)(F)F)[C@H](CC1CC1)C(N)=O)C(=O)N2

>  <outcome_measure>
half-life at 0.5 µM

>  <recorded_number>
1

$$$$
>  <sample_smiles>
NC(=O)[C@@H](CC1CC1)[C@@H](CCC(F)(F)F)C(=O)N[C@H]1N=C(c2cccc(Cl)c2)c2cccc(Cl)c2NC1=O

>  <outcome_measure>
half-life at 0.5 µM

>  <recorded_number>
1.6

$$$$
>  <sample_smiles>
Cc1cccc2c1NC(=O)[C@@H](NC(=O)[C@H](CCC(F)(F)F)[C@H](CC1CC1)C(N)=O)N=C2c1ccc(F)cc1

>  <outcome_measure>
half-life at 0.5 µM

>  <recorded_number>
1.73

$$$$
>  <sample_smiles>
CN1C(=O)[C@@H](NC(=O)[C@H](CCC(F)(F)F)[C@H](CC2CC2)C(N)=O)N=C(c2ccccc2)c2cccc(F)c21

>  <outcome_measure>
half-life at 0.5 µM

>  <recorded_number>
1.77

$$$$
>  <sample_smiles>
COc1cccc2c1NC(=O)[C@@H](NC(=O)[C@H](CCC(F)(F)F)[C@H](CC1CC1)C(N)=O)N=C2c1cccc(C(F)(F)F)c1

>  <outcome_measure>
half-life at 0.5 µM

>  <recorded_number>
0.767

$$$$
>  <sample_smiles>
CCC[C@H](C(N)=O)[C@@H](CCC(F)(F)F)C(=O)N[C@H]1N=C(c2ccc(Cl)cc2)c2cccc(OC)c2NC1=O

>  <outcome_measure>
half-life at 0.5 µM

>  <recorded_number>
0.517

$$$$
>  <sample_smiles>
CCC[C@H](C(N)=O)[C@@H](CCC(F)(F)F)C(=O)N[C@H]1N=C(c2ccccc2)c2cccc(OC)c2NC1=O

>  <outcome_measure>
half-life at 0.5 µM

>  <recorded_number>
0.567

$$$$
>  <sample_smiles>
NC(=O)[C@@H](CC1CC1)[C@@H](CCC(F)(F)F)C(=O)N[C@H]1N=C(c2ccccc2)c2cccc(OC3CC3)c2NC1=O

>  <outcome_measure>
half-life at 0.5 µM

>  <recorded_number>
1.38

$$$$

Challenge: Supply reported half-life at 0.5 µM belonging to this molecule: `NC(=O)[C@@H](CC1CC1)[C@@H](CCC(F)(F)F)C(=O)N[C@H]1N=C(c2cccc(F)c2)c2cccc(F)c2NC1=O`
Response given: 1.15

Challenge: Look up and state reported half-life at 0.5 µM for `CCC[C@H](C(N)=O)[C@@H](CCC(F)(F)F)C(=O)N[C@H]1N=C(c2ccccc2)c2cccc(F)c2NC1=O`
Response given: 0.717

Challenge: Please give the documented half-life at 0.5 µM of `NC(=O)[C@@H](CC1CC1)[C@@H](CCC(F)(F)F)C(=O)N[C@H]1N=C(c2cccc(F)c2)c2cccc(OC3CC3)c2NC1=O`
Response given: 1.23

Challenge: Return reported half-life at 0.5 µM. Input molecule: `CCC[C@H](C(N)=O)[C@@H](CCC(F)(F)F)C(=O)N[C@H]1N=C(c2ccccc2)c2cccc(Cl)c2NC1=O`
Response given: 0.5

* * *

Assay: human metabolic stability half-life assay
Conditions: microsomes, pH 7.4, HLM (t1/2, min), human liver microsomes, CYP-mediated (NADPH-dependent), 0.5 μM compound, 45 min time course, some values are an average of N experiments
outcome_measure: half-life at 0.5 µM (min)
Answer with a number only, understood to be in min.

Recorded results for 5 molecules are shown here.
>  <molecule>
NC(=O)[C@@H](CC1CC1)[C@@H](CCC(F)(F)F)C(=O)N[C@H]1N=C(c2ccccc2)c2cccc(C3CC3)c2NC1=O [Example 14]

>  <half-life at 0.5 µM, min>
41

$$$$
>  <molecule>
Cc1cccc2c1NC(=O)[C@@H](NC(=O)[C@H](CCC(F)(F)F)[C@H](CC1CC1)C(N)=O)N=C2c1ccccc1 [Example 11]

>  <half-life at 0.5 µM, min>
76

$$$$
>  <molecule>
COc1cccc2c1NC(=O)[C@@H](NC(=O)[C@H](CCC(F)(F)F)[C@H](CC1(C)CC1)C(N)=O)N=C2c1ccccc1 [Example 33]

>  <half-life at 0.5 µM, min>
47

$$$$
>  <molecule>
Cc1cc(F)cc(C2=N[C@H](NC(=O)[C@H](CCC(F)(F)F)[C@H](CC3CC3)C(N)=O)C(=O)Nc3c(Cl)cccc32)c1 [Example 3]

>  <half-life at 0.5 µM, min>
77

$$$$
>  <molecule>
NC(=O)[C@@H](CC1CC1)[C@@H](CCC(F)(F)F)C(=O)N[C@H]1N=C(c2ccc(Cl)cc2)c2cccc(C3CC3)c2NC1=O [Example 7]

>  <half-life at 0.5 µM, min>
97

$$$$

Challenge: Output half-life at 0.5 µM of Cc1cccc(C2=N[C@H](NC(=O)[C@H](CCC(F)(F)F)[C@H](CC3CC3)C(N)=O)C(=O)Nc3c(Cl)cccc32)c1 [Example 30]
Response given: 74

Challenge: Please supply the value of reported half-life at 0.5 µM for the item CCC[C@H](C(N)=O)[C@@H](CCC(F)(F)F)C(=O)N[C@H]1N=C(c2ccccc2)c2cccc(O)c2NC1=O [Example 41]
Response given: 45
